# testTarget: Ecdysone receptor (Bombyx mori, UniProt P49881)
# Sequence (P49881 whole entry): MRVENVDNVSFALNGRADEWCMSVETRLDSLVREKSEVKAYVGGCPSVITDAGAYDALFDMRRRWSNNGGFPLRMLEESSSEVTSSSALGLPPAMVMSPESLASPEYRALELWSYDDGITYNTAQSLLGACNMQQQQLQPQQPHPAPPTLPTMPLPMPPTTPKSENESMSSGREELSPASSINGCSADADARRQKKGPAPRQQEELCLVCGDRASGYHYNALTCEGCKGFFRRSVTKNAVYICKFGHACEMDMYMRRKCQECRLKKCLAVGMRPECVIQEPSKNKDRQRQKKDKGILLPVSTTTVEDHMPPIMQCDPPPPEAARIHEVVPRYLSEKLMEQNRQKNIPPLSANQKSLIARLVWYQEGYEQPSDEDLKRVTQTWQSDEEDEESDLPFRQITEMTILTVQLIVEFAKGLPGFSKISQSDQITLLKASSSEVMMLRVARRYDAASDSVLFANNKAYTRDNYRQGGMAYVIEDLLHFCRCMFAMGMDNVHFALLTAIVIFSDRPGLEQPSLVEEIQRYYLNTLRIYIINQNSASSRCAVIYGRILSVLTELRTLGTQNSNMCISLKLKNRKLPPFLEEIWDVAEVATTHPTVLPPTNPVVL
# method: Agonist activity at ecdysone receptor in Bombyx mori Bm5 cells after 24 hr by luciferase reporter gene assay
# Type: cell-based
# conditionDetails: read-out: pEC50 (converted)
Exercise: state measured EC50 for each of the compounds provided.
Report the value in nM with no unit label.

Q: Name the reported EC50 value associated with the compound `CCOc1ccccc1C(=O)N(NC(=O)c1ccc(OC)cc1)C(C)(C)C`
A: 19100

Q: Bench note: what EC50 did `CC(C)(C)N(NC(=O)c1ccc(Br)cc1)C(=O)c1ccccc1Cl` show?
A: 151

Q: Value lookup for EC50; key = `CC(C)(C)N(NC(=O)c1ccccc1F)C(=O)c1ccccc1Cl`
A: 145

Q: Look up EC50: `CCCCc1ccc(C(=O)NN(C(=O)c2cc(C)cc(C)c2Cl)C(C)(C)C)cc1`
A: 1150

Q: Field request: EC50 | item: `CC(C)(C)N(NC(=O)c1ccccc1)C(=O)c1ccccc1C(F)(F)F`
A: 871

Q: Consider the compound CCc1ccc(C(=O)NC(C(=O)c2cc(C)cc(C)c2)C(C)(C)C)cc1 (stereo not given) and give its measured EC50.
A: 35500

Q: Could you share which EC50 value was measured for `CCc1ccc(C(=O)NC(CC)(CC)C(=O)c2cc(C)cc(C)c2)cc1` ?
A: 1260

Q: # query: EC50 of entry CC(C)(C)N(NC(=O)c1ccc(Cl)cc1)C(=O)c1ccccc1 [HALOFENOZIDE]
A: 77.6

Q: So what's the measured EC50 for this one? `CC(C)(C)N(NC(=O)c1ccccc1)C(=O)c1ccc(Cl)c(Cl)c1Cl`
A: 3630

Q: Any idea what EC50 was measured for `CCc1ccc(C(=O)NN(C(=O)c2cc(C)cc(C)c2Cl)C(C)(C)C)cc1` ?
A: 115
